Every entry's value here was drawn from ChEMBL document CHEMBL1152240.

target: Cytochrome P450 2C19 (Homo sapiens, UniProt P33261)
Sequence (P33261 whole entry): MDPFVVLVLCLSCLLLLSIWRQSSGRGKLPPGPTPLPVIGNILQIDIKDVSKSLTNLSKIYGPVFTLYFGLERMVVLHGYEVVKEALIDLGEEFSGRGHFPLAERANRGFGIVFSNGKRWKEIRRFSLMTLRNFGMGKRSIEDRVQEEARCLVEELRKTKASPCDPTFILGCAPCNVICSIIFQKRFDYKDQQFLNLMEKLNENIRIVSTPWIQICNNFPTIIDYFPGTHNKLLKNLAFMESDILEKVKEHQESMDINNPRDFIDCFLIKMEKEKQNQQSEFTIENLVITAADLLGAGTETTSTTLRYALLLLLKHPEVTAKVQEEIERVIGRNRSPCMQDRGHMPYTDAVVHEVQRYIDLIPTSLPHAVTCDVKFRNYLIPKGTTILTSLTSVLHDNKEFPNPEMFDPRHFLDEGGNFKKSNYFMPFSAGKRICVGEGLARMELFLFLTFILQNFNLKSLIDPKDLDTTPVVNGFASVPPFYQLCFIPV
Measure name: IC50

Form field: reported IC50 of COCCCn1c(NC(=O)c2ccc(C#N)cc2)nc2cc(CN(C)C3CCCCC3)ccc21
> 14 µM

* * *

test: Half life in iv dosed mouse; type: ADME, organism-based; conditions: in vivo
Measure name: half-life (h)
One number for each entry, in h.

Form field: reported half-life of COCCCn1c(NC(=O)c2ccc(C#N)cc2)nc2cc(CN(C)C3CCCCC3)ccc21
5

* * *

assay: Selectivity ratio of IC50 for IRK to IC50 for Itk
Measure name: Ratio IC50
One number for each entry.

Please review the entries below; each comes with its answer.
COCCCn1c(NC(=O)c2ccno2)nc2cc(CN(C)C3CCCCC3)ccc21 115
COCCCn1c(NC(=O)c2cccc(C#N)c2)nc2cc(CN(C)C3CCCCC3)ccc21 17
COCCCn1c(NC(=O)c2cccc(Br)c2)nc2cc(CN(C)C3CCCCC3)ccc21 6.6

Form field: reported Ratio IC50 of COCCCn1c(NC(=O)c2ccc(C(F)(F)F)cc2)nc2cc(CN(C)C3CCCCC3)ccc21
1

* * *

target: Cytochrome P450 1A2 (Homo sapiens); assay: Inhibition of CYP1A2; format: ADME
Sequence (P05177 whole entry): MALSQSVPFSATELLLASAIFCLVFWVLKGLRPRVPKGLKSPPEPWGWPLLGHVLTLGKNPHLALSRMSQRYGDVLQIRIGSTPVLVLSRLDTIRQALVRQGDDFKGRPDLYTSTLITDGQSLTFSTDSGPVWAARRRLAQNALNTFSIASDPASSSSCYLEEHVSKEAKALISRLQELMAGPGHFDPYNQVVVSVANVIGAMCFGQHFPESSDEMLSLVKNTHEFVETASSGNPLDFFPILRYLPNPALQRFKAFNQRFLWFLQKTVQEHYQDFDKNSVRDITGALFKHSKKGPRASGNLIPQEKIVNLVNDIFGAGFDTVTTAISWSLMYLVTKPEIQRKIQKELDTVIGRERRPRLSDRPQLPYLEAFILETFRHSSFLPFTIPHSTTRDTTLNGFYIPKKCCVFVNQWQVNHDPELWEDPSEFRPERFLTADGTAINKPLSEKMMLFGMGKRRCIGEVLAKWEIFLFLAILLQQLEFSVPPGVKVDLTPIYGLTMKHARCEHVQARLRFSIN
pIC50: −log10 of the molar value.
Measure name: pIC50

Form field: reported pIC50 of COCCCn1c(NC(=O)c2ccc(C#N)cc2)nc2cc(CN(C)C3CCCCC3)ccc21
< 4.85

* * *

system: T-cell; assay: Inhibition of anti-CD3 and anti-CD28-mAB-stimulated IFN-gamma production in human CD4+ T cells after 20 hrs by ELISA; format: functional, cell-based
Measure name: pIC50
Numbers only, as −log10 of the molar value.

COCCCn1c(NC(=O)c2ccc(C#N)cc2)nc2cc(CNC3CCCCC3)ccc21 5.64

Pending molecule:
Form field: reported pIC50 of COCCCn1c(NC(=O)c2ccc(C#N)cc2)nc2cc(CN(C)C3CCCCC3)ccc21
5.96

* * *

test: Oral bioavailability in mouse; format: ADME, organism-based; settings: in vivo
Measure name: bioavailability (%)
Numbers only, in %.

Form field: reported bioavailability of COCCCn1c(NC(=O)c2ccc(C#N)cc2)nc2cc(CN(C)C3CCCCC3)ccc21
17

* * *

Molecular target: Tyrosine-protein kinase ITK/TSK (Homo sapiens, UniProt Q08881)
Sequence (Q08881 whole entry): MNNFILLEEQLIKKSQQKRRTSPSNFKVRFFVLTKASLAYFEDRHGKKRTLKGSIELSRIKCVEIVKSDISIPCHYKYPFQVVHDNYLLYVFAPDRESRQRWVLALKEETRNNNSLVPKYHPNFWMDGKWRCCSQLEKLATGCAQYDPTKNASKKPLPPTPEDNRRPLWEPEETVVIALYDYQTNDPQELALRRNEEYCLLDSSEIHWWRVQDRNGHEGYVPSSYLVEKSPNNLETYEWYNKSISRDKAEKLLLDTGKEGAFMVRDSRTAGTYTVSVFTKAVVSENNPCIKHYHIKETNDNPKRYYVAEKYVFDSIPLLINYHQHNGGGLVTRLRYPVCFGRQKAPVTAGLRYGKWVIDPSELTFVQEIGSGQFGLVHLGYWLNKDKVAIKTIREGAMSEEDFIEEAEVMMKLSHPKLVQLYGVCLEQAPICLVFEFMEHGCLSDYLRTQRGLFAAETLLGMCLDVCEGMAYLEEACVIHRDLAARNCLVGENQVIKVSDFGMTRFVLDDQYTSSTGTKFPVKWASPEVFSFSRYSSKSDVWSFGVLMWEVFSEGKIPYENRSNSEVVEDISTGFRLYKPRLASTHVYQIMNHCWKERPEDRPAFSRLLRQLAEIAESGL
Please respond with reported IC50 for every item in the list.
Numbers only, in nM.

COCCCn1c(NC(=O)c2ccno2)nc2cc(CN(C)C3CCCCC3)ccc21 47
COCCCn1c(NC(=O)c2ccno2)nc2cc(CNC3CCCCC3)ccc21 53

Please report IC50 for every entry that follows.
1. COCCCn1c(NC(=O)c2cccc(C#N)c2)nc2cc(CN(C)C3CCCCC3)ccc21
2. CN(Cc1ccc2c(c1)nc(NC(=O)c1ccc(C#N)cc1)n2CCC(N)=O)C1CCCCC1
3. CN(Cc1ccc2c(c1)nc(NC(=O)c1ccc(C#N)cc1)n2CCCn1ccnc1)C1CCCCC1
4. COCCCn1c(NC(=O)c2ccc(C#N)cc2)nc2cc(CNC3CCCCC3)ccc21

20
41
30
45

* * *

experiment: Clearance in iv dosed mouse; assay type: ADME, organism-based; details: in vivo
Measure name: clearance (mL/min/kg)
Answers are plain numbers, in mL/min/kg.

Form field: reported clearance of COCCCn1c(NC(=O)c2ccc(C#N)cc2)nc2cc(CN(C)C3CCCCC3)ccc21
43
